Test system: Normal Human Epidermal Keratinocytes (NHEKs)
RUN_DESCRIPTION: Microscopic observation of NHEK cell survival 48 h after inflammatory treatment
Type: cell-based
CONDITIONS_USED: NHEK cultures 48 h after inflammatory treatment (10 ng/mL PMA + 2 μM calcium ionophore A23187); microscopic observation
READOUT_LABEL: Result at 48 h: cell survival

O=C(/C=C/c1ccc(O)c(O)c1)O[C@@H]1C[C@](O)(C(=O)O)C[C@@H](OC(=O)/C=C/c2ccc(O)c(O)c2)[C@H]1O [PAT965, 3,5-O-Dicaffeoylquinic] ... 10% cell survival
O=C(/C=C/c1ccc(O)c(O)c1)O[C@@H]1[C@H](O)C[C@@](O)(C(=O)O)C[C@H]1OC(=O)/C=C/c1ccc(O)c(O)c1 [PAT964, 3,4-O-Dicaffeoylquinic] ... 10% cell survival
C[C@@H]1C[C@H]2[C@@H]3CCC4=CC(=O)C=C[C@]4(C)[C@@]3(F)[C@@H](O)C[C@]2(C)[C@@]1(O)C(=O)CO [dexamethasone] ... 10% cell survival
O=C(/C=C/c1ccc(O)c(O)c1)O[C@H]1[C@H](O)C[C@](O)(C(=O)O)C[C@H]1OC(=O)/C=C/c1ccc(O)c(O)c1 [PAT967, 4,5-O-Dicaffeoylquinic] ... 10% cell survival
CCCCCCCCNC(=O)[C@]1(O)C[C@@H](OC(=O)/C=C/c2ccc(O)c(O)c2)[C@@H](O)[C@H](OC(=O)/C=C/c2ccc(O)c(O)c2)C1 [PAT1657] ... Confluent culture: 100%
CCCCNC(=O)[C@]1(O)C[C@@H](OC(=O)/C=C/c2ccc(O)c(O)c2)[C@@H](O)[C@H](OC(=O)/C=C/c2ccc(O)c(O)c2)C1 [PAT1658] ... 80% cell survival

As a next step, examine the molecule that follows.
Recorded result, CCCCCCCCCCCCNC(=O)[C@]1(O)C[C@@H](OC(=O)/C=C/c2ccc(O)c(O)c2)[C@@H](O)[C@H](OC(=O)/C=C/c2ccc(O)c(O)c2)C1 [PAT1648] , Result at 48 h: cell survival: Confluent culture: 100%

Provenance of the data: patent US10786690B2
